Overview of reported pest or weed control at 140 g/ha across a group of compounds:
Test system: Key Grass and Sedge Weeds as well as Grass Crops
Experimental protocol: Post-emergent Test II herbicidal activity (Table 6)
Type: in vivo
Test settings: post-emergence, 336 h, SORVU: grain sorghum (Sorghum vulgare), application rate 140 g ai/ha, read-out: Visual Growth Reduction (%) 14 Days After Application, SORVU
Description: Post-emergent Test II: Seeds or nutlets of the desired test plant species were planted in Sun Gro Metro-Mix® 360 planting mixture, which typically has a pH of 6.0 to 6.8 and an organic matter content of about 30 percent, in plastic pots with a surface area of 64 square centimeters. When required to ensure good germination and healthy plants, a fungicide treatment and/or other chemical or physical treatment was applied. […]

Below, 6 compounds whose answers are already recorded.
- COC(=O)c1nc(-c2cc(F)c(C(F)F)cc2F)nc(N)c1OC: 45 to 59%
- N#Cc1ccc(-c2nc(C(=O)O)c(Cl)c(N)c2Cl)cc1: 0 to 29%
- Nc1c(Cl)c(C(=O)O)nc(-c2ccc(I)cc2)c1Cl: 85 to 94%
- COC(=O)c1nc(-c2ccc(OC(F)(F)F)cc2)c(Cl)c(N)c1Cl: 0 to 29%
- Nc1c(F)c(-c2cc(F)c(Br)cc2F)nc(C(=O)O)c1Cl: 95 to 100%
- COC(=O)c1nc(-c2ccc(C(F)(F)F)c(F)c2)nc(N)c1OC: 0 to 29%

Lab note: next compound to report on.
Reported pest or weed control at 140 g/ha for COC(=O)c1nc(-c2cc(F)c(Br)cc2F)nc(N)c1OC was 60 to 74%

====

System: Key Grass and Sedge Weeds as well as Grass Crops
Experimental protocol: Post-emergent Test II herbicidal activity (Table 6)
Format: in vivo
Test settings: post-emergence, 336 h, ECHCG: barnyardgrass (Echinochloa crus-galli), 140 g ai/ha, read-out: Visual Growth Reduction (%) 14 Days After Application, ECHCG
Overview of reported pest or weed control at 140 g/ha across a group of compounds:

* COC(=O)c1nc(-c2ccc(I)c(F)c2)c(F)c(N)c1Cl | 75 to 84%

Reported pest or weed control at 140 g/ha for COC(=O)c1nc(-c2ccc(Br)cc2)cc(N)c1Cl was 95 to 100%

Reported pest or weed control at 140 g/ha for COc1c(N)nc(-c2ccc(I)c(F)c2F)nc1C(=O)O was 85 to 94%

Reported pest or weed control at 140 g/ha for C=Cc1c(C(=O)O)nc(-c2ccc(Cl)c(F)c2)c(F)c1N was 95 to 100%

Reported pest or weed control at 140 g/ha for Cc1ccc(-c2nc(C(=O)O)c(Cl)c(N)c2F)cc1F was 85 to 94%

====

Tested on: Key Broadleaf Weed and Crop Species
Experimental protocol: Post-emergent Test II herbicidal activity (Table 5)
Assay type: in vivo
Test settings: post-emergence, 336 h; EPHHL: wild poinsettia (Euphorbia heterophylla); 70 g ai/ha; post-emergent; 14 days after application; read-out: Visual Growth Reduction (%) 14 Days After Application EPHHL
Readout name: pest or weed control at 70 g/ha

Below, 3 molecules whose answers are already recorded.
* COc1c(N)nc(-c2ccc(Br)c(F)c2)nc1C(=O)O | 95 to 100%
* C#Cc1ccc(-c2nc(C(=O)OC)c(C=C)c(N)c2F)cc1 | 0 to 29%
* C=Cc1c(N)nc(-c2ccc(F)c(F)c2F)nc1C(=O)O | 95 to 100%

Reported pest or weed control at 70 g/ha for COC(=O)c1nc(-c2ccc(Br)c(F)c2)cc(N)c1Cl was 95 to 100%

Reported pest or weed control at 70 g/ha for COC(=O)c1nc(-c2ccc(Br)c(F)c2)c(C)c(N)c1Cl was 0 to 29%

Reported pest or weed control at 70 g/ha for C=Cc1c(N)nc(-c2ccc(C#N)cc2F)nc1C(=O)O was 0 to 29%

====

Test system: Key Broadleaf Weed and Crop Species
Experimental protocol: Post-emergent Test II herbicidal activity (Table 5)
Type: in vivo
Test settings: post-emergence, 336 h; VIOTR: wild pansy (Viola tricolor); 140 g ai/ha; post-emergent; 14 days after application; read-out: Visual Growth Reduction (%) 14 Days After Application VIOTR
Readout name: pest or weed control at 140 g/ha

Below, 3 molecules whose answers are already recorded.
- Cc1c(-c2ccc(C(F)(F)F)c(F)c2)nc(C(=O)O)c(Cl)c1N [Compound 161]: 0 to 29%
- C=Cc1c(N)nc(-c2ccc(I)cc2)nc1C(=O)O [Compound 123]: 45 to 59%
- C#Cc1ccc(-c2nc(C(=O)O)c(Cl)c(N)c2Cl)cc1 [Compound 153]: 0 to 29%

Reported pest or weed control at 140 g/ha for COC(=O)c1nc(-c2c(F)cc(I)c(F)c2F)cc(N)c1Cl [Compound 90] was 95 to 100%

Reported pest or weed control at 140 g/ha for COC(=O)c1nc(-c2cc(F)c(C(F)(F)F)cc2F)nc(N)c1OC [Compound 148] was 60 to 74%

Reported pest or weed control at 140 g/ha for COC(=O)c1nc(-c2cc(F)c(F)cc2F)c(F)c(N)c1Cl [Compound 200] was 95 to 100%

Reported pest or weed control at 140 g/ha for C=Cc1c(C(=O)O)nc(-c2ccc(I)cc2)c(F)c1N [Compound 17] was 0 to 29%

Reported pest or weed control at 140 g/ha for C#Cc1ccc(-c2nc(N)c(OC)c(C(=O)O)n2)cc1 [Compound 28] was 0 to 29%

Reported pest or weed control at 140 g/ha for COC(=O)c1nc(-c2ccc(I)c(F)c2)nc(N)c1OC [Compound 27] was 95 to 100%

Reported pest or weed control at 140 g/ha for Nc1c(Cl)c(C(=O)O)nc(-c2ccc(C(F)(F)F)c(F)c2)c1Cl [Compound 146] was 0 to 29%

====

Test system: Key Grass and Sedge Weeds as well as Grass Crops
Experimental protocol: Post-emergent Test II herbicidal activity (Table 6)
Assay type: in vivo
Test settings: post-emergence, 336 h, ZEAMX: maize, corn (Zea mays), application rate 70 g ai/ha, read-out: Visual Growth Reduction (%) 14 Days After Application, ZEAMX
Overview of reported pest or weed control at 70 g/ha across a group of molecules:

• COC(=O)c1nc(-c2cc(F)c(C#N)cc2F)c(F)c(N)c1Cl [Compound 198] = 0 to 29%

Reported pest or weed control at 70 g/ha for COC(=O)c1nc(-c2cc(F)c(C(F)(F)F)cc2F)cc(N)c1Cl [Compound 70] was 95 to 100%

Reported pest or weed control at 70 g/ha for COC(=O)c1nc(-c2ccc(Br)cc2F)cc(N)c1Cl [Compound 93] was 60 to 74%

Reported pest or weed control at 70 g/ha for COC(=O)c1nc(-c2cc(F)c(F)cc2F)c(F)c(N)c1Cl [Compound 200] was 45 to 59%

Reported pest or weed control at 70 g/ha for COC(=O)c1nc(-c2ccc(Br)c(F)c2)cc(N)c1Cl [Compound 115] was 0 to 29%

Reported pest or weed control at 70 g/ha for Nc1c(F)c(-c2cc(F)c(OC(F)F)cc2F)nc(C(=O)O)c1Cl [Compound 195] was 0 to 29%

Reported pest or weed control at 70 g/ha for COC(=O)c1nc(-c2ccc(I)c(F)c2)c(Cl)c(N)c1Cl [Compound 13] was 60 to 74%

Reported pest or weed control at 70 g/ha for COC(=O)c1nc(-c2ccc(Br)cc2)c(Cl)c(N)c1Cl [Compound 47] was 85 to 94%

Reported pest or weed control at 70 g/ha for COC(=O)c1nc(-c2ccc(OC(F)F)cc2)cc(N)c1Cl [Compound 23] was 0 to 29%

====

Overview of reported melting point across a group of compounds:

• C#Cc1ccc(-c2nc(N)c(OC)c(C(=O)OC)n2)c(F)c1 [Compound 59] = 203 to 205 °C
• Nc1c(F)c(-c2ccc([N+](=O)[O-])cc2)nc(C(=O)O)c1Cl [Compound 31] = 180 to 181 °C
• COC(=O)c1nc(-c2cc(F)c(C)cc2F)c(F)c(N)c1Cl [Compound 184] = 116.5 to 118.8 °C
• COC(=O)c1nc(-c2cc(F)c(F)cc2F)c(F)c(N)c1Cl [Compound 200] = 143.5 to 144.5 °C
• COC(=O)c1nc(-c2ccc(Br)c(F)c2F)nc(N)c1OC [Compound 122] = 171 to 172 °C
• C#Cc1ccc(-c2nc(C(=O)O)c(Cl)c(N)c2F)c(F)c1F [Compound 50] = 174 to 176 °C

Lab note: next compound to report on.
Reported melting point for COc1c(N)nc(-c2ccccc2)nc1C(=O)O [Compound 207] was 130 to 132 °C
